Each record here notes measured IC50.
Target: C. albicans Pma1 (Candida albicans, UniProt P28877)
Construct: endogenous in cells
Sequence (P28877 whole entry): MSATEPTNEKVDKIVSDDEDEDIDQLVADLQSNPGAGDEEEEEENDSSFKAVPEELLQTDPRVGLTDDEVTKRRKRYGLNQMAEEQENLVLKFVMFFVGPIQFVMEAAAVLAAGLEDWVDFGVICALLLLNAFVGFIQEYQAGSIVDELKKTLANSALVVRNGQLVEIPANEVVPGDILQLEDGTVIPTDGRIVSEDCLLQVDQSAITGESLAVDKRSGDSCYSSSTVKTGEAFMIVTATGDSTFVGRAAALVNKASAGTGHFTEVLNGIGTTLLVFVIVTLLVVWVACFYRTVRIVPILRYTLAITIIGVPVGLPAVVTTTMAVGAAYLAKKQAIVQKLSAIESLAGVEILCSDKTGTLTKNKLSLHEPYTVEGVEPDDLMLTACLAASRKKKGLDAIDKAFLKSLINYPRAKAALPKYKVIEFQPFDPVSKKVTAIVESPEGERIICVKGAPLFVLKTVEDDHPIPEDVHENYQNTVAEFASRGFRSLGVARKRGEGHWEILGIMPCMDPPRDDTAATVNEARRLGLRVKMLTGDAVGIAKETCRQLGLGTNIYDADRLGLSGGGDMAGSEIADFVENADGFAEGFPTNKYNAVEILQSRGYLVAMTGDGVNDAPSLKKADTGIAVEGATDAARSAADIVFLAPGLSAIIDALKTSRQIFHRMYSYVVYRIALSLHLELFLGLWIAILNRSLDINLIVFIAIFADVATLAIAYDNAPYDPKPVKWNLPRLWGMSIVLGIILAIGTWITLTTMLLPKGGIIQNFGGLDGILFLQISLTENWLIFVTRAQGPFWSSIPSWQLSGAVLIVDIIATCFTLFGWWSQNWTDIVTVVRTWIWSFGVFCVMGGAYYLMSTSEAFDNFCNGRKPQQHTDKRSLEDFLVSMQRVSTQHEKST
Experiment: ATP hydrolysis assay, C. albicans Pma1
Format: biochemical
Conditions: Table 2; pH 7, n = 2; read-out: IC50 for ATP hydrolysis, C. albicans Pma1
Description: A 100-ml overnight culture in YPD medium [10 g/liter yeast extract (BD, Sparks, MD), 20 g/liter Bacto peptone (BD), 20 g/liter D-(+)-glucose] was transferred to 1 liter YPD medium and grown at room temperature and 150 rpm for 18 h for wild-type S. cerevisiae (ATCC 9763) and 7 h for C. albicans. […] The protein activity levels were determined by measuring the amount of free phosphate produced from the ATP hydrolysis reaction. […]
Residues, ends and D or L forms follow the SMILES beside them.

Below are worked cases with known answers.
INSERT INTO measurements (molecule, test_target, result) VALUES
  ('[O]=[V]([O-])([O-])[O-] [Vanadate, reference compound]', 'C. albicans Pma1 (Candida albicans, UniProt P28877)', '0.23 µM'),
  ('CCCCc1nc2sc3c(NCCCN(C)C)ncnc3c2c2c1CCCC2', 'C. albicans Pma1 (Candida albicans, UniProt P28877)', '17 µM'),
  ('CCCCc1nc2sc3c(NCCCN(C)C)nc(SC)nc3c2c2c1CCC2', 'C. albicans Pma1 (Candida albicans, UniProt P28877)', '6.3 µM'),
  ('CCc1nc2sc3c(NCCCN(C)C)ncnc3c2c2c1CCCC2', 'C. albicans Pma1 (Candida albicans, UniProt P28877)', '151 µM'),
  ('N=C(N)NCCC[C@@H](N)C(=O)N[C@H](CCCNC(=N)N)C(=O)N[C@H](CCCNC(=N)N)C(=O)N[C@H](Cc1ccccc1)C(=O)N[C@H](Cc1c[nH]c2ccccc12)C(=O)N[C@H](Cc1c[nH]c2ccccc12)C(=O)N[C@H](Cc1ccccc1)C(=O)N[C@H](CCCNC(=N)N)C(=O)N[C@H](CCCNC(=N)N)C(=O)N[C@H](CCCNC(=N)N)C(N)=O [BM2, reference compound] (HELM PEPTIDE1{[dR].[dR].[dR].[dF].[dW].[dW].[dF].[dR].[dR].[dR].[am]}$$$$V2.0)', 'C. albicans Pma1 (Candida albicans, UniProt P28877)', '0.9 µM'),
  ('CN(C)CCCNc1ncnc2c1sc1nc(N3CCCCC3)c3c(c12)CCCC3', 'C. albicans Pma1 (Candida albicans, UniProt P28877)', '9.5 µM');

Qu. Lab request: please report IC50 under test system C. albicans Pma1 (Candida albicans, UniProt P28877) for "CCN(CC)CCCNc1nc(SC)nc2c1sc1nc(-c3ccccc3)c3c(c12)CCC3"
Ans. 8.7 µM

Qu. Can you check "CN(C)CCCNc1ncnc2c1sc1nc(-c3ccccc3)c3c(c12)CCC3" next?
Ans. 22.9 µM

Taken from paper PMC5487681.
